# Test Details: Single-dose oral pharmacokinetic profile in mice
# Format: in vivo
# Condition Notes: mouse, plasma; male C57BL/6 mice, single oral dose 200 mg/kg
Experimental Endpoint: MRT (h)
Could you give me the number in h? Just the number is fine.

IN: # input compound: CNC(=O)C(=O)CC[C@H](NC(=O)c1cc(Cl)sc1Cl)C(=O)Nc1cccn(CC(=O)NC2C3CC4CC(C3)CC2C4)c1=O (stereo partly drawn) ; wanted: its MRT
OUT: 1.6

IN: Further, for CNC(=O)C(=O)CC[C@H](NC(=O)c1sc(C(F)(F)F)nc1C)C(=O)Nc1cccn(CC(=O)NC2C3CC4CC(C3)CC2C4)c1=O (stereo partly drawn) ?
OUT: 1.1

IN: Further, for CNC(=O)C(=O)CC[C@H](NC(=O)c1oc2ccccc2c1C)C(=O)Nc1cccn(CC(=O)NC2C3CC4CC(C3)CC2C4)c1=O (stereo partly drawn) ?
OUT: 1

----------
# Experimental Target: recombinant human transglutaminase 2 (Homo sapiens)
# Construct: purchased Zedira T022
# Sequence (P21980 whole entry): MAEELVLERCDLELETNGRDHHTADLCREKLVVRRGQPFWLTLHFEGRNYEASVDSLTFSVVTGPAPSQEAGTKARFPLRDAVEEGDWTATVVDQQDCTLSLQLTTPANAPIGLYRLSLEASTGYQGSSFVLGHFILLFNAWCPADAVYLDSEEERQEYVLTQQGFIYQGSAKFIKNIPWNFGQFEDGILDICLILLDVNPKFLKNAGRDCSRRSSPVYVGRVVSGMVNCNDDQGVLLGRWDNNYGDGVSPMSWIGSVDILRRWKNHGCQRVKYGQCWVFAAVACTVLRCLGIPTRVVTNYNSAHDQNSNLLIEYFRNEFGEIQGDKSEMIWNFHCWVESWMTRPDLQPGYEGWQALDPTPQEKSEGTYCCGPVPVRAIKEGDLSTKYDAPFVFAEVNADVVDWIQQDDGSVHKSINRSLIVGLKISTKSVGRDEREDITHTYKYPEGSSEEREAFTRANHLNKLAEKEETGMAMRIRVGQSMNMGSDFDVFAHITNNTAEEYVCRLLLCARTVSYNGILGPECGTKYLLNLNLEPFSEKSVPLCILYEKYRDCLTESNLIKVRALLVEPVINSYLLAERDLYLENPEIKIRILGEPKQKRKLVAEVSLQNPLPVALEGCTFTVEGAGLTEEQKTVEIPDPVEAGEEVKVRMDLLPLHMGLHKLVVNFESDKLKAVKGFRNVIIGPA
# Test Details: Transglutaminase assay (DCC-assay): incorporation of dansylcadaverine into dimethylcasein
# Type: biochemical
# Condition Notes: recombinant human TG2 10 nM; dansylcadaverine incorporation into dimethylcasein; read-out: IC50 TG2
For each of the compounds below, state its IC50.

IN: # input compound: CC(C)(C)NC(=O)C(=O)CC[C@H](NC(=O)c1c[nH]c2ccccc12)C(=O)Nc1cccn(CC(=O)NC2C3CC4CC(C3)CC2C4)c1=O (some centres unmarked) ; wanted: its IC50
OUT: 0.4 to 2.5 µM

IN: Further, for CNC(=O)C(=O)CC[C@H](NC(=O)c1oc2ccccc2c1C)C(=O)Nc1cccn(CC(=O)NC23CC4CC5C2C[C@@H]2C[C@H]5C(C4)[C@H]3C2)c1=O (stereo in doubt) ?
OUT: 0.04 to 0.4 µM

IN: Further, for CNC(=O)C(=O)CC[C@H](NC(=O)c1oc2ccccc2c1C)C(=O)Nc1cccn(CC(=O)N[C@H]2C[C@H]3CC[C@@]2(C)C3(C)C)c1=O ?
OUT: 0.04 to 0.4 µM

IN: Further, for CNC(=O)C(=O)CC[C@H](NC(=O)c1oc2ccccc2c1C)C(=O)Nc1cccn(CC(=O)N[C@H]2C[C@H]3CC[C@@H]2C3)c1=O ?
OUT: 0.04 to 0.4 µM

IN: Further, for CNC(=O)C(=O)CC[C@H](NC(=O)[C@@H]1CCCN1C)C(=O)Nc1cccn(CC(=O)NC2C3CC4CC(C3)CC2C4)c1=O (some centres unmarked) ?
OUT: 0.04 to 0.4 µM

IN: Further, for CNC(=O)C(=O)CC[C@H](NC(=O)c1oc2ccccc2c1C)C(=O)Nc1cccn(CC(=O)NC2C3CC4CC2CC(Cl)(C4)C3)c1=O (some centres unmarked) ?
OUT: < 0.04 µM

IN: Further, for CNC(=O)C(=O)CC[C@H](NC(=O)C1CN2CCC1CC2)C(=O)Nc1cccn(CC(=O)NC2C3CC4CC(C3)CC2C4)c1=O (some centres unmarked) ?
OUT: 0.04 to 0.4 µM

IN: Further, for CNC(=O)C(=O)CC[C@H](NC(=O)[C@H]1CCNC1)C(=O)Nc1cccn(CC(=O)NC2C3CC4CC(C3)CC2C4)c1=O (some centres unmarked) ?
OUT: 0.04 to 0.4 µM

IN: Further, for CNC(=O)C(=O)CC[C@H](NC(=O)c1csc(Br)c1)C(=O)Nc1cccn(CC(=O)NC2C3CC4CC(C3)CC2C4)c1=O (some centres unmarked) ?
OUT: < 0.04 µM

IN: Further, for CNC(=O)C(=O)CC[C@H](NC(=O)c1sc(C(F)(F)F)nc1Br)C(=O)Nc1cccn(CC(=O)NC2C3CC4CC(C3)CC2C4)c1=O (some centres unmarked) ?
OUT: < 0.04 µM

IN: Further, for CNC(=O)C(=O)CC[C@H](NC(=O)c1sccc1Br)C(=O)Nc1cccn(CC(=O)NC2C3CC4CC(C3)CC2C4)c1=O (some centres unmarked) ?
OUT: 0.04 to 0.4 µM

IN: Further, for CNC(=O)C(=O)CC[C@H](NC(=O)c1ccc2ccoc2c1)C(=O)Nc1cccn(CC(=O)NC2C3CC4CC2CC(C(N)=O)(C4)C3)c1=O (some centres unmarked) ?
OUT: 0.04 to 0.4 µM

IN: Further, for CNC(=O)C(=O)CC[C@H](NC(=O)c1snnc1C1CC1)C(=O)Nc1cccn(CC(=O)NC23CC(C2)C3)c1=O ?
OUT: 0.04 to 0.4 µM

IN: Further, for CNC(=O)C(=O)CC[C@H](NC(=O)c1ccn(C)n1)C(=O)Nc1cccn(CC(=O)NC2C3CC4CC(C3)CC2C4)c1=O (some centres unmarked) ?
OUT: 0.4 to 2.5 µM

IN: Further, for CNC(=O)C(=O)CC[C@H](NC(=O)c1cnnn1C)C(=O)Nc1cccn(CC(=O)N[C@@H]2C[C@@H]3CC[C@H]2C3)c1=O ?
OUT: 0.04 to 0.4 µM

IN: Further, for CNC(=O)C(=O)CC[C@H](NC(=O)c1sc(Br)cc1C)C(=O)Nc1cccn(CC(=O)NC2C3CC4CC(C3)CC2C4)c1=O (some centres unmarked) ?
OUT: < 0.04 µM

IN: Further, for CNC(=O)C(=O)CC[C@H](NC(=O)c1snnc1C=O)C(=O)Nc1cccn(CC(=O)NC2C3CC4CC(C3)CC2C4)c1=O (some centres unmarked) ?
OUT: 0.04 to 0.4 µM

IN: Further, for CNC(=O)C(=O)CC[C@H](NC(=O)c1cnc(C(C)C)o1)C(=O)Nc1cccn(CC(=O)NC23CCC(C2)C3)c1=O ?
OUT: 0.04 to 0.4 µM

IN: Further, for CNC(=O)C(=O)CC[C@H](NC(=O)c1oc2ccccc2c1C)C(=O)Nc1cccn(CC23CC4CC(CC(Br)(C4)C2)C3)c1=O ?
OUT: 0.04 to 0.4 µM

IN: Further, for CNC(=O)C(=O)CC[C@H](NC(=O)c1nn[nH]n1)C(=O)Nc1cccn(CC(=O)NC2C3CC4CC(C3)CC2C4)c1=O (some centres unmarked) ?
OUT: 0.4 to 2.5 µM

IN: Further, for CNC(=O)C(=O)CC[C@H](NC(=O)c1ccncc1)C(=O)Nc1cccn(CC(=O)NC2C3CC4CC(C3)CC2C4)c1=O (some centres unmarked) ?
OUT: < 0.04 µM

IN: Further, for CNC(=O)C(=O)CC[C@H](NC(=O)c1sc(Cl)nc1Cl)C(=O)Nc1cccn(CC(=O)NC2C3CC4CC(C3)CC2C4)c1=O (some centres unmarked) ?
OUT: 0.04 to 0.4 µM

IN: Further, for CNC(=O)C(=O)CC[C@H](NC(=O)c1oc2ccccc2c1C)C(=O)Nc1cccn(CC(=O)NC2C3CCC2CC3)c1=O (some centres unmarked) ?
OUT: 0.04 to 0.4 µM

IN: Further, for CNC(=O)C(=O)CC[C@H](NC(=O)c1oc2ccccc2c1C)C(=O)Nc1cccn(CC(=O)NC23CC(C2)C3)c1=O ?
OUT: < 0.04 µM

IN: Further, for CNC(=O)C(=O)CC[C@H](NC(=O)c1oc2ccccc2c1C)C(=O)Nc1cccn(CC(=O)NC23CCCC4CC(CCC42)C3)c1=O (some centres unmarked) ?
OUT: 0.04 to 0.4 µM

IN: Further, for O=C(Cn1cccc(NC(=O)[C@H](CCC(=O)C(=O)NC2CCCC2)NC(=O)c2cnc3ccc(OC(F)(F)F)cc3c2O)c1=O)N[C@@H]1C[C@@H]2CC[C@H]1C2 ?
OUT: 0.4 to 2.5 µM
